# assay-target: 4-diphosphocytidyl-2-C-methyl-D-erythritol kinase (Escherichia coli (strain K12))
# Sequence (P62615 whole entry): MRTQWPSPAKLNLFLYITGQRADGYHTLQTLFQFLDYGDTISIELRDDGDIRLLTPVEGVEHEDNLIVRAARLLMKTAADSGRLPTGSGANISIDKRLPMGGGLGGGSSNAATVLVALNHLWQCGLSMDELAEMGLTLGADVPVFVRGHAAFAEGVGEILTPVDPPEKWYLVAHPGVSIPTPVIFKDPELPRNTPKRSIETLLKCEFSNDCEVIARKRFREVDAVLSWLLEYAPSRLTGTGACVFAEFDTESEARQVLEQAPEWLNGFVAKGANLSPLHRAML
# test-name: Inhibition of Escherichia coli IspE by spectrophotometric analysis
pIC50: −log10 of the molar value.
property-label: pIC50

INSERT INTO measurements (structure_smiles, numeric_readout) VALUES
  ('Nc1ccn([C@@H]2O[C@H](CNC(=O)CCc3nc4ccccc4[nH]3)[C@@H](O)[C@H]2O)c(=O)n1', 5.77);
